Target: JAK3 (Homo sapiens (Human), UniProt P52333)
Sequence (P52333 822-1111): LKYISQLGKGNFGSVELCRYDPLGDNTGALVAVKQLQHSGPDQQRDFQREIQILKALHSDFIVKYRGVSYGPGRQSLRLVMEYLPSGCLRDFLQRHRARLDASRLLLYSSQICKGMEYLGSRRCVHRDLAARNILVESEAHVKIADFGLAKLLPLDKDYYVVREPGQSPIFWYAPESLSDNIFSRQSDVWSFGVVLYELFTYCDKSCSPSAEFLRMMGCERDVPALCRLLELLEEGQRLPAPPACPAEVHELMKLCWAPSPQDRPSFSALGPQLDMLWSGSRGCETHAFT
Assay: JAK Caliper enzyme assay at 1 mM ATP (JAK3)
Settings: recombinant human kinase domain, Caliper mobility shift
measure-name: IC50 (µM)

Use these answered entries as a reference point.
1) CO[C@H]1C[C@@](CC#N)(n2cc(-c3nc(-c4cnn(C)c4)cn4nccc34)cn2)C1 [Example 16]	10
2) C[C@H]1N(CC(F)(F)F)C[C@]1(CC#N)n1cc(-c2nc(-c3cnn(C)c3)cn3nccc23)cn1 [Example 17]	10

a = Cn1cc(-c2cn3nccc3c(-c3cnn([C@]4(CC#N)C[C@@H](C#N)C4)c3)n2)c(N)n1 [Example 23]
b = Cn1cc(-c2cn3nccc3c(-c3cnn([C@]4(CC#N)C[C@](C)(C#N)C4)c3)n2)cn1 [Example 34]
Task: Return label of the item with the larger IC50. Candidates: a , b . Return value: the label identifying the chosen record.
Result: a
